B1: OR4K15 (parent)
chain: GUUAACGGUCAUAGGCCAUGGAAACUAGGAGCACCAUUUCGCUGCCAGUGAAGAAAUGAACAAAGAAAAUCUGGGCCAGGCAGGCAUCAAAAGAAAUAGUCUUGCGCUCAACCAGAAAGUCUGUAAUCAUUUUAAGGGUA

# Variants of: B1
# Assay Remarks: self-cleavage, relative activity (ratio to wild type); higher = more cleavage; in vitro, sequencing; the parent is a self-cleaving ribozyme
The reader will find reported self-cleavage values listed item by item below.
API note: the answer field is a bare number with no unit suffix.

A selection of reference data follows.
G75U    0.12
U38A U100C    2.23
A22G U103G    0.05

I would be grateful if you could share the reported self-cleavage for A78U A134G .
0.31

I would be grateful if you could share the reported self-cleavage for U19C G48A .
1.61

I would be grateful if you could share the reported self-cleavage for C61U A89G .
1.62
